The values you see were collected from patent US7626027B2.

biological target: casein kinase 1ε (Homo sapiens, UniProt P49674); construct: made in house; test: Casein Kinase Epsilon 33P-ATP Filter Plate Assay; assay type: biochemical; settings: phosphorylation of casein, 10 μM cold ATP, 2 hours room temperature; * denotes average of 2 or more determinations; read-out: Casein Kinase Iε 33P-ATP Filter Plate Assay IC50
Sequence (P49674 whole entry): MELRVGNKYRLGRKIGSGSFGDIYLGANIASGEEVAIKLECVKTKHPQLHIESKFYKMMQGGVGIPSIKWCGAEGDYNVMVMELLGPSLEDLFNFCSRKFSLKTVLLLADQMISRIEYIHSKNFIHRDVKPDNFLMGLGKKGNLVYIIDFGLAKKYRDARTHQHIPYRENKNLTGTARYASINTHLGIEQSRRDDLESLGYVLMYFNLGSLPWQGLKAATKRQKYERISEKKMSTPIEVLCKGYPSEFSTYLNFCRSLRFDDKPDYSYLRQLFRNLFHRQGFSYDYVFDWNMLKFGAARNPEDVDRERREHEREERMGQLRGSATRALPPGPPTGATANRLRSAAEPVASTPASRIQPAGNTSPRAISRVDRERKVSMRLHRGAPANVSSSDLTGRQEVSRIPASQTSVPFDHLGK
metric: IC50 (nM)
Lab book: enter the figure in nM, no units written.

Problem: Determine its reported IC50: NC(=O)c1[nH]c2cccnc2c1Sc1ccccc1C(F)(F)F [Ia-10]
Solution: 2890

----------
molecular target: casein kinase 1ε (Homo sapiens, UniProt P49674); construct: made in house; experiment: Casein Kinase Epsilon 33P-ATP Filter Plate Assay; format: biochemical
pIC50: −log10 of the molar value.
The label depends only on pIC50: T if it is at least 6, F if it is smaller.

NC(=O)c1[nH]c2cccnc2c1Sc1ccccn1; T
NC(=O)c1[nH]c2cnccc2c1Sc1cccc(Cl)c1; T
NC(=O)c1[nH]c2cccnc2c1Sc1ccncc1; F

Problem: Is reported pIC50 greater than or equal to 6 here: Cc1ccccc1Sc1c(C(N)=O)[nH]c2cccnc12
Solution: T

Problem: Is reported pIC50 greater than or equal to 6 here: NC(=O)c1[nH]c2cccnc2c1Sc1ccccc1F
Solution: T

----------
The entries below are paired with their reported log10(IC50).
target: casein kinase 1ε (Homo sapiens); construct: made in house; experiment: Casein Kinase Epsilon 33P-ATP Filter Plate Assay; assay type: biochemical
In plain terms, each number is the log10 of measured IC50 in nM.

NC(=O)c1[nH]c2cccnc2c1Sc1ccccc1N; 1.56
NC(=O)c1[nH]c2cnccc2c1Sc1ccccc1; 2.59
NC(=O)c1[nH]c2cccnc2c1Sc1cccc(F)c1; 1.87
COc1ccccc1Sc1c(C(N)=O)[nH]c2cnccc12; 2.65

Problem: Determine its reported log10(IC50): COc1ccc2[nH]c(C(N)=O)c(Sc3cccc(F)c3)c2n1
Solution: 2.95

Problem: Determine its reported log10(IC50): NC(=O)c1[nH]c2ccncc2c1Sc1ccccc1
Solution: 3.05

Problem: Determine its reported log10(IC50): NC(=O)c1[nH]c2cccnc2c1Sc1ccc(Cl)cc1
Solution: 2.69

----------
The entries below are paired with their reported melting point.
Lab book: enter the figure in °C, no units written.

See these solved cases before continuing.
NC(=O)c1[nH]c2cccnc2c1Sc1ccc(Cl)cc1Cl; 266
NC(=O)c1[nH]c2cccnc2c1Sc1ccccc1; 251

Consider now this further compound.
Problem: Determine its reported melting point: NC(=O)c1[nH]c2cccnc2c1Sc1ccc(Cl)cc1
Solution: 266

----------
The entries below are paired with their reported pIC50.
Biological target: casein kinase 1ε (Homo sapiens)
Construct: made in house
Assay: Casein Kinase Epsilon 33P-ATP Filter Plate Assay
Assay type: biochemical
Excerpt: Casein Kinase Epsilon ^33P-ATP Filter Plate Assay for Screening CK1 Inhibitors Purpose: This assay measures the effect of compounds to inhibit the phosphorylation of the substrate casein by the enzyme casein kinase 1ε using an in vitro ^33P-ATP filtration assay. […] • 4. […] Column 12 reflects any nonspecific phosphorylation/retained radioactivity activity in the absence of inhibiting compound and enzyme.
Friendly reminder that pIC50 comes from taking -log10 of the concentration in mol/L.

See these solved cases before continuing.
Cc1cccc(Sc2c(C(N)=O)[nH]c3cccnc23)c1; 7.14
NC(=O)c1[nH]c2cccnc2c1Sc1ccccc1Cl; 5.19
CCc1ccccc1Sc1c(C(N)=O)[nH]c2cccnc12; 5.19

Consider now this further compound.
Problem: Determine its reported pIC50: Cn1c(C(N)=O)c(Sc2ccccc2)c2ncccc21
Solution: 6.47

----------
biological target: casein kinase 1ε (Homo sapiens, UniProt P49674); construct: made in house; experiment: Casein Kinase Epsilon 33P-ATP Filter Plate Assay; type: biochemical
metric: pIC50
Friendly reminder that pIC50 comes from taking -log10 of the concentration in mol/L.

CCCn1c(C(N)=O)c(Sc2ccccc2)c2ncccc21; 6.91
NC(=O)c1[nH]c2cccnc2c1Sc1ccc([N+](=O)[O-])cc1; 5.01
NC(=O)c1[nH]c2cnccc2c1Sc1ccccn1; 6.54

Consider now this further molecule.
Problem: Determine its reported pIC50: NC(=O)c1[nH]c2cnccc2c1Sc1ccccc1OC(F)(F)F
Solution: 5.89

----------
target: casein kinase 1ε (Homo sapiens); construct: made in house; test: Casein Kinase Epsilon 33P-ATP Filter Plate Assay; format: biochemical
The entries below are paired with their reported log10 of IC50.
In plain terms, each number is the log10 of measured IC50 in nM.

See these solved cases before continuing.
NC(=O)c1[nH]c2cccnc2c1Sc1cccc2cccnc12; 3.19
Cc1cc(C)cc(Sc2c(C(N)=O)[nH]c3cccnc23)c1; 3.84
NC(=O)c1[nH]c2cnccc2c1Sc1ccccc1C(F)(F)F; 2.88
Cc1ccc(Sc2c(C(N)=O)[nH]c3cccnc23)cc1; 2.42
NC(=O)c1[nH]c2cccnc2c1Sc1ccccc1; 1.56

Problem: Determine its reported log10 of IC50: NC(=O)c1[nH]c2cnccc2c1Sc1cccc(F)c1
Solution: 3.26

Problem: Determine its reported log10 of IC50: NC(=O)c1[nH]c2ccncc2c1Sc1cccc(F)c1
Solution: 2.67

Problem: Determine its reported log10 of IC50: NC(=O)c1[nH]c2cccnc2c1Sc1cccc(Cl)c1
Solution: 1.41

Problem: Determine its reported log10 of IC50: NC(=O)c1[nH]c2ccncc2c1Sc1ccc(Cl)cc1
Solution: 3.90

Problem: Determine its reported log10 of IC50: COc1cccc(Sc2c(C(N)=O)[nH]c3ccc(OC)nc23)c1
Solution: 1.93

Problem: Determine its reported log10 of IC50: NC(=O)c1[nH]c2cccnc2c1Sc1cccc(Br)c1
Solution: 1.40

Problem: Determine its reported log10 of IC50: NC(=O)c1[nH]c2cccnc2c1Sc1cccc([N+](=O)[O-])c1
Solution: 2.27

Problem: Determine its reported log10 of IC50: NC(=O)c1[nH]c2cccnc2c1Sc1cccs1
Solution: 1.72

----------
Target: casein kinase 1ε (Homo sapiens)
Construct: made in house
Assay: Casein Kinase Epsilon 33P-ATP Filter Plate Assay
Type: biochemical
Description: Casein Kinase Epsilon ^33P-ATP Filter Plate Assay for Screening CK1 Inhibitors Purpose: This assay measures the effect of compounds to inhibit the phosphorylation of the substrate casein by the enzyme casein kinase 1ε using an in vitro ^33P-ATP filtration assay. […] • 4. […] Column 12 reflects any nonspecific phosphorylation/retained radioactivity activity in the absence of inhibiting compound and enzyme.
The entries below are paired with their reported IC50.
Lab book: enter the figure in nM, no units written.

Problem: Specify IC50 for NC(=O)c1[nH]c2cccnc2c1Sc1cccc(C(F)(F)F)c1 , system casein kinase 1ε (Homo sapiens).
Solution: 709

Problem: Specify IC50 for NC(=O)c1[nH]c2cccnc2c1Sc1cccc(OC(F)(F)F)c1 , system casein kinase 1ε (Homo sapiens).
Solution: 219

Problem: Specify IC50 for COc1cccc(Sc2c(C(N)=O)[nH]c3cnccc23)c1 , system casein kinase 1ε (Homo sapiens).
Solution: 397

Problem: Specify IC50 for COc1cccc(Sc2c(C(N)=O)[nH]c3cccnc23)c1 , system casein kinase 1ε (Homo sapiens).
Solution: 109

Problem: Specify IC50 for NC(=O)c1[nH]c2cccnc2c1Sc1cccc(N)c1 , system casein kinase 1ε (Homo sapiens).
Solution: 424
